pIC50: −log10 of the molar value.
Literature compilation of pIC50 measurements on ALK tyrosine kinase receptor (Homo sapiens, UniProt Q9UM73).

Compound	Val
N#Cc1c(-c2ccc(O)cc2F)nc2[nH]ncc2c1-c1ccco1	> 7.00

Q: What does the data say about its pIC50? Entry: O=C(c1ccc(-c2cnc3c(c2)N(Cc2cc(Cl)ccc2C(F)(F)F)CCN3)cc1)N1CCC(Cc2ccccc2)CC1
Result: 5.00 to 6.00

Q: What does the data say about its pIC50? Entry: CCNC(=O)c1cccc(-c2cnc3c(c2)N(Cc2ccccc2)C(=O)CN3)c1
Result: < 4.00

Q: What does the data say about its pIC50? Entry: C[C@@H](Oc1cc(C(=O)Nc2ccc(C(=O)N3CCN4CCCC4C3)cc2)nnc1N)c1c(Cl)ccc(F)c1Cl (stereo partly drawn)
Result: > 9.00

Q: What does the data say about its pIC50? Entry: COc1cc2c(cc1Nc1nc(Nc3cccc(F)c3C(N)=O)c3cc[nH]c3n1)N(C(=O)CN)CC2
Result: 8.40 to 8.90

Q: What does the data say about its pIC50? Entry: O=C(NCc1ccc(OC(F)(F)F)cc1)c1cnc2c(c1)N(Cc1cc(Cl)ccc1Cl)CCN2
Result: 5.00 to 6.00

Q: What does the data say about its pIC50? Entry: O=C(NC1Cc2ccccc2C1)c1ccc(-c2cnc3c(c2)N(Cc2cc(Cl)ccc2C(F)(F)F)CCN3)cc1
Result: 6.00 to 7.00

###

Literature compilation of IC50 measurements on ALK tyrosine kinase receptor (Homo sapiens, UniProt Q9UM73).

Q: Recall the recorded IC50 for N#Cc1c(-c2ccc(O)cc2F)nc2[nH]nc(N)c2c1-c1ccc(N2CC[C@H](N)C2)cc1 with ALK tyrosine kinase receptor (Homo sapiens, UniProt Q9UM73) and state it.
Result: < 100 nM

Q: Recall the recorded IC50 for CN1CCN(c2ccc(-c3cnc4c(c3)NCCN4)cn2)CC1 with ALK tyrosine kinase receptor (Homo sapiens, UniProt Q9UM73) and state it.
Result: 10000 to 100000 nM

Q: Recall the recorded IC50 for N#Cc1c(-c2ccc(O)cc2)nc2[nH]ncc2c1-c1ccsc1 with ALK tyrosine kinase receptor (Homo sapiens, UniProt Q9UM73) and state it.
Result: 100 to 1000 nM

Q: Recall the recorded IC50 for COc1cc(C2CCCN(C)C2)ccc1Nc1nc(Nc2ccc(F)cc2C(N)=O)c2cc[nH]c2n1 (stereo not shown) with ALK tyrosine kinase receptor (Homo sapiens, UniProt Q9UM73) and state it.
Result: 0.251 to 1 nM

Q: Recall the recorded IC50 for COc1cc(C)c(N(C)C(=O)CN(C)C)cc1Nc1nc(Nc2cccc(F)c2C(N)=O)c2cc[nH]c2n1 with ALK tyrosine kinase receptor (Homo sapiens, UniProt Q9UM73) and state it.
Result: 5.01 to 200 nM

Q: Recall the recorded IC50 for CC(C)CNCC(O)CNc1ccnc(O)c1-c1nc2cc3c(cc2[nH]1)C(=O)N(C1CCN(C)CC1)C3=O (stereo not shown) with ALK tyrosine kinase receptor (Homo sapiens, UniProt Q9UM73) and state it.
Result: > 15000 nM

Q: Recall the recorded IC50 for O=C(NCc1ccncc1)c1ccc(-c2cnc3c(c2)N(Cc2cc(Cl)ccc2C(F)(F)F)CCN3)cc1 with ALK tyrosine kinase receptor (Homo sapiens, UniProt Q9UM73) and state it.
Result: 100 to 1000 nM
